EXPERIMENTAL_SYSTEM: Amyloid-beta precursor protein (Homo sapiens)
Sequence (P05067 whole entry): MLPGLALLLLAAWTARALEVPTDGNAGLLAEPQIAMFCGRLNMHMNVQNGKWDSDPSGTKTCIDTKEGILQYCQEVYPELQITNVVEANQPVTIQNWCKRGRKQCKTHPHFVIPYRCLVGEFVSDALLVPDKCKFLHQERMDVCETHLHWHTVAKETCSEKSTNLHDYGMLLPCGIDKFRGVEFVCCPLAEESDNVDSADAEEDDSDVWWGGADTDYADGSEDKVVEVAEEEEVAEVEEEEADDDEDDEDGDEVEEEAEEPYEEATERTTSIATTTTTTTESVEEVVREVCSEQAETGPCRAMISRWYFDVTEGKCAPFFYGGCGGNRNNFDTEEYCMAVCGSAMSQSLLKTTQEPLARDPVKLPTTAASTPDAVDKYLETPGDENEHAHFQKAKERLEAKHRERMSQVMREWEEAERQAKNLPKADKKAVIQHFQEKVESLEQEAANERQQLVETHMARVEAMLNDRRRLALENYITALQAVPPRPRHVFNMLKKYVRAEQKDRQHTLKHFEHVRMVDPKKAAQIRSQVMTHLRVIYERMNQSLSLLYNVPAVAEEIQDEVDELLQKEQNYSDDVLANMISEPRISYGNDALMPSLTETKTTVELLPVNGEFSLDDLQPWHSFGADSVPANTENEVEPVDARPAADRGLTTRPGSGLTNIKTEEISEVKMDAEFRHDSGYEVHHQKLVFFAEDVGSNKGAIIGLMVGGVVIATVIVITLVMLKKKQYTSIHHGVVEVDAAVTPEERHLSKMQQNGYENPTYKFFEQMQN
METHOD_SUMMARY: Disaggregation of self-induced amyloid beta (1 to 42) (unknown origin) at 25 uM measured by Thioflavin T based fluorometric assay relative to control
Field: Activity. Provide a value for each of the compounds that follow.
Units required after the number.

Print Amyloid-beta precursor protein (Homo sapiens) Activity for `CCN(CCCCCCOc1ccc(C(=O)/C=C/c2ccc(N(C)C)cc2)c(O)c1)Cc1ccccc1OC` . 92.6%

Print Amyloid-beta precursor protein (Homo sapiens) Activity for `CCN(CCCCCCOc1ccc(C(=O)/C=C/c2ccc(N(C)C)cc2)c(O)c1)Cc1ccccc1N(C)C` . 87.9%

Print Amyloid-beta precursor protein (Homo sapiens) Activity for `CCN(CCCCOc1ccc(C(=O)/C=C/c2ccc(N(C)C)cc2)c(O)c1)Cc1ccccc1` . 97.2%

Print Amyloid-beta precursor protein (Homo sapiens) Activity for `CCN(CCCOc1ccc(C(=O)/C=C/c2ccc(N(C)C)cc2)c(O)c1)Cc1ccc(N(C)C)cc1` . 73.7%

Print Amyloid-beta precursor protein (Homo sapiens) Activity for `CCN(CCCCOc1ccc(C(=O)/C=C/c2ccc(N(C)C)cc2)c(O)c1)Cc1ccccc1N(C)C` . 95.1%

Print Amyloid-beta precursor protein (Homo sapiens) Activity for `CCN(CCCOc1ccc(C(=O)/C=C/c2ccc(N(C)C)cc2)c(O)c1)Cc1ccccc1OC` . 98.1%

Print Amyloid-beta precursor protein (Homo sapiens) Activity for `CCN(CCCCCCOc1ccc(C(=O)/C=C/c2ccc(N(C)C)cc2)c(O)c1)Cc1ccc(N(C)C)cc1` . 95%

====

Species: Homo sapiens
METHOD_SUMMARY: Selectivity index, ratio of IC50 for recombinant human MAO-A to IC50 for recombinant human MAO-B
OBSERVABLE: Selectivity Index

Look up and state reported Selectivity Index for `CCN(CCCOc1ccc(C(=O)/C=C/c2ccccc2)c(O)c1)Cc1ccccc1N(C)C` 84.4

Look up and state reported Selectivity Index for `CCN(CCCCOc1ccc(C(=O)/C=C/c2ccc(N(C)C)cc2)c(O)c1)Cc1ccccc1OC` 25

Look up and state reported Selectivity Index for `CCN(CCCCOc1ccc(C(=O)/C=C/c2ccc(N(C)C)cc2)c(O)c1)Cc1ccccc1` 8.7

Look up and state reported Selectivity Index for `CCN(CCCOc1ccc(C(=O)/C=C/c2ccc(N(C)C)cc2)c(O)c1)Cc1ccccc1N(C)C` 7.4

Look up and state reported Selectivity Index for `CCN(CCCCOc1ccc(C(=O)/C=C/c2ccc(N(C)C)cc2)c(O)c1)Cc1ccc(N(C)C)cc1` 7.2

Look up and state reported Selectivity Index for `COc1ccc(C(=O)/C=C/c2ccc(N(C)C)cc2)c(O)c1` 36.3

Look up and state reported Selectivity Index for `CCN(CCCCOc1ccc(/C=C/C(=O)c2ccc(N(C)C)cc2O)cc1)Cc1ccccc1N(C)C` 2.9

Look up and state reported Selectivity Index for `CCN(CCCCOc1ccc(C(=O)/C=C/c2ccc(N(C)C)cc2)c(O)c1)Cc1ccccc1N(C)C` 18.4

Look up and state reported Selectivity Index for `COc1ccc(/C=C/C(=O)c2ccc(N(C)C)cc2O)cc1` 3.2

====

EXPERIMENTAL_SYSTEM: Acetylcholinesterase (Electrophorus electricus, UniProt O42275)
Sequence (O42275 whole entry): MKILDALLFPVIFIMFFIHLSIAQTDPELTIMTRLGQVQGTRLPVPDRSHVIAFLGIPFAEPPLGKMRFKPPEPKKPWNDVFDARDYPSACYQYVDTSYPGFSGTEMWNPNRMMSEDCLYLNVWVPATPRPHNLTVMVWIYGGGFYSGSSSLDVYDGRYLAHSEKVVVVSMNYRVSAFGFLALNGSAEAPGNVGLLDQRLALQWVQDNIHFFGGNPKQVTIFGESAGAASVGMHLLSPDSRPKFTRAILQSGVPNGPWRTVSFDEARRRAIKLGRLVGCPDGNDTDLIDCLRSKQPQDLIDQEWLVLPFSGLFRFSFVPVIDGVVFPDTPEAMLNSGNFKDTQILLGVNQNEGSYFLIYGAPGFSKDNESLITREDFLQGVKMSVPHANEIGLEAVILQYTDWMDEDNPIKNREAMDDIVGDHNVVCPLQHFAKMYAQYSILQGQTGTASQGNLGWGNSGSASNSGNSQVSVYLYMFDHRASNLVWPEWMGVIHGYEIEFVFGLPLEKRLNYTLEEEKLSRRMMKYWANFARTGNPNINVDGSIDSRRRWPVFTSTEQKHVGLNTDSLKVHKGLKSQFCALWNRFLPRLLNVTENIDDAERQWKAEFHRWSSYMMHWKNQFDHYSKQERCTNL
Field: IC50. Provide a value for each of the compounds that follow.
Provide the reading as a plain figure in nM.

Look up and state reported IC50 for `CCN(CCCCCCOc1ccc(C(=O)/C=C/c2ccc(N(C)C)cc2)c(O)c1)Cc1ccccc1N(C)C` 2440

Look up and state reported IC50 for `CCN(CCCCOc1ccc(C(=O)/C=C/c2ccc(N(C)C)cc2)c(O)c1)Cc1ccccc1N(C)C` 690

Look up and state reported IC50 for `CCN(CCCOc1ccc(C(=O)/C=C/c2ccc(N(C)C)cc2)c(O)c1)Cc1ccccc1N(C)C` 1590

Look up and state reported IC50 for `CCN(CCCOc1ccc(C(=O)/C=C/c2ccc(N(C)C)cc2)c(O)c1)Cc1ccccc1` 5060

Look up and state reported IC50 for `CCN(CCCCOc1ccc(/C=C/C(=O)c2ccc(N(C)C)cc2O)cc1)Cc1ccccc1N(C)C` 3020

Look up and state reported IC50 for `CCN(CCCCOc1ccc(C(=O)/C=C/c2ccc(N(C)C)cc2)c(O)c1)Cc1ccccc1` 4300

Look up and state reported IC50 for `CCN(CCCCOc1ccc(C(=O)/C=C/c2ccc(N(C)C)cc2)c(O)c1)Cc1ccc(N(C)C)cc1` 1960

Look up and state reported IC50 for `CCN(CCCOc1ccc(C(=O)/C=C/c2ccc(N(C)C)cc2)c(O)c1)Cc1ccc(N(C)C)cc1` 6210

Look up and state reported IC50 for `CCN(CC)CCCOc1ccc(C(=O)/C=C/c2ccc(N(C)C)cc2)c(O)c1` 1350
